These measurements were taken from PubChem BioAssay (NCI).

test system: KM12 colon; assay: NCI tumour cell line growth inhibition, 48 h
Property: TGI; scope: individual compounds

In the examples that follow, each entry is paired with its recorded TGI.
COc1ccc(/C=N/n2c(Cc3ccc(Cl)cc3)n[nH]c2=O)c(OC)c1 :: > 100 µM
CS(=O)(=O)O.[Ag] :: 89.8 µM
COc1cc2c3c(n(CCCNCCNCCCN)c(=O)c2cc1OC)-c1cc2c(cc1C3=O)OCO2 :: 14.5 µM
O=[N+]([O-])c1cccc(-c2cc(-c3cc(Br)ccc3O)[nH]n2)c1 :: 6 µM
Cc1ccc2nc(Cl)c(/C=N/N3C(=O)/C(=C/c4ccc(N(C)C)cc4)N=C3c3ccccc3)cc2c1 :: > 100 µM
CO/C(=N\N=C\c1cccc(C(F)(F)F)c1)c1ccncc1 :: > 100 µM

Log: KM12 colon, compound COc1ccc(C2c3cc4c(cc3OC(N3CCCCC3)C2C)OCO4)cc1 (stereo not given) , TGI = > 100 µM

Log: KM12 colon, compound COc1ccc(C2(C3c4cc(OC)c(OC)cc4CCN3C)SCCCS2)cc1O (stereo not given) , TGI = > 100 µM

Lab entry: KM12 colon assay, compound "O=C(c1ccccc1)N1C(=S)N(c2ccc([N+](=O)[O-])cc2)C(=Nc2ccccc2)C1=Nc1ccccc1" , TGI = > 100 µM

Item O=C(O)c1ccc(C2C3C=CC(C3)C2[N+](=O)[O-])cc1 (stereo not given) was tested on KM12 colon; the reported TGI is > 100 µM
